Please respond with reported growth for every item in the list.
Tested on: SN12C renal
assayDetails: NCI-60 one-dose screen, 48 h (100 = growth as untreated, 0 = no growth, -100 = all killed)
setupConditions: 10 µM unless noted
Experimental: Growth inhibition of the SN12C human tumor cell line is measured as a screen for anti-cancer activity. Cells are grown in 96 well plates and exposed to the test compound for 48 hours. Compounds are tested at a single concentration, which is 10^-5 M for most compounds. The reported endpoint is percent growth (GI% or GIPRCNT), where numbers from 0 - 100% represent growth inhibition, and numbers from -100% - 0 represent cell death. For example, a value of 40 represents 60% growth inhibition. […]
This is part of a sample that, as a whole, favours compounds with a hit. Of some 83,000 tested, about 20% had one in any assay.
Numbers only, in %.

In the examples that follow, each entry is paired with its recorded growth.
{"compound": "Cc1cc2nc(CC(=O)c3ccncc3)c(=O)[nH]c2cc1C", "readoutValue": 84.7}
{"compound": "NNc1cccc([N+](=O)[O-])c1", "readoutValue": 102}
{"compound": "Oc1cc(Cl)ccc1Cc1ccc(Cl)cc1O", "readoutValue": 36.2}
{"compound": "CC(CSc1n[nH]c(=S)s1)c1ccccc1 (stereo unspecified)", "readoutValue": 101}
{"compound": "O=[N+]([O-])CC(O)c1ccccc1 (stereo unspecified)", "readoutValue": 101}

Below: the item to evaluate.
IN: What value of growth has been recorded for this entry: O=C(/C=C/C(Cl)(Cl)Cl)Nc1ccc(Cl)cc1
OUT: 101
